B1: KRT13 (parent)
chain: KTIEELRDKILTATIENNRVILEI

- Variants of: B1
- PROCEDURE_DETAILS: protein stability index of a GFP-peptide fusion (GPS, HEK-293T) (PSI 1-6); higher = more stable;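 also: lentivirally expressed fusions sorted by FACS into six bins by GFP to DsRed ratio, PSI derived from sequencing read proportions per bin multiplied by bin number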
- DETAILS: c terminus: a fixed tail appended
Binned protein stability index; ranges: label 0 = under 2, label 1 = from 2 up to 3, label 2 = 3 and over

Past entries and their recorded results:
change=I15S category_label="label 1"
change=R19N category_label="label 0"
change=I24Q category_label="label 1"
change=E23L category_label="label 1"
change=T12I category_label="label 2"
change=L11H category_label="label 0"
change=E4T category_label="label 2"
change=I15F category_label="label 0"

Input line: Kindly state the category for this variant: T12Q
Output line: label 1

Input line: Kindly state the category for this variant: E23G
Output line: label 1

Just for reference, the supplement of paper PMC10567573 is where these values come from.
